Sourced from ChEMBL document CHEMBL3991601

molecular target: Insulin-like growth factor 1 receptor (Homo sapiens); also: in the data inactive means no Kd found up to 30 µM
Sequence (P08069 31-736 limits assumed): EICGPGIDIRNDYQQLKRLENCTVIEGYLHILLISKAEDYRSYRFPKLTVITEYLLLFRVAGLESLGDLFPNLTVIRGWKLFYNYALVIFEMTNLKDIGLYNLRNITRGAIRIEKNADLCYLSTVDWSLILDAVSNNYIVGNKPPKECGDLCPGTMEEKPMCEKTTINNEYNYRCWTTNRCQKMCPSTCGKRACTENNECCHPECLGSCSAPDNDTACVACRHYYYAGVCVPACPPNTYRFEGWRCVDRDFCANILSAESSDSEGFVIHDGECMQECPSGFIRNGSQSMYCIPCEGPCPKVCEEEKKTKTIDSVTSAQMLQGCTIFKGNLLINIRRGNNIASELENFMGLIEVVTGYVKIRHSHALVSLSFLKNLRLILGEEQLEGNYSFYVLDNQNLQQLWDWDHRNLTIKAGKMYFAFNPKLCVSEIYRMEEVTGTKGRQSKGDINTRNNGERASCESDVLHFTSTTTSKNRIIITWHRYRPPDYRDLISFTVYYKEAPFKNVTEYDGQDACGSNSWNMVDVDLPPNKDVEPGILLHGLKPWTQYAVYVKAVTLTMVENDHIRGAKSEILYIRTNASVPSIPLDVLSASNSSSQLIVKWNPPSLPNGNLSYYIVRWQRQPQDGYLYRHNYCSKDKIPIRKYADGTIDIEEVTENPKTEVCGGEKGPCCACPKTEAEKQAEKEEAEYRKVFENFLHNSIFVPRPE
Sequence (P08069 741-1367 limits assumed): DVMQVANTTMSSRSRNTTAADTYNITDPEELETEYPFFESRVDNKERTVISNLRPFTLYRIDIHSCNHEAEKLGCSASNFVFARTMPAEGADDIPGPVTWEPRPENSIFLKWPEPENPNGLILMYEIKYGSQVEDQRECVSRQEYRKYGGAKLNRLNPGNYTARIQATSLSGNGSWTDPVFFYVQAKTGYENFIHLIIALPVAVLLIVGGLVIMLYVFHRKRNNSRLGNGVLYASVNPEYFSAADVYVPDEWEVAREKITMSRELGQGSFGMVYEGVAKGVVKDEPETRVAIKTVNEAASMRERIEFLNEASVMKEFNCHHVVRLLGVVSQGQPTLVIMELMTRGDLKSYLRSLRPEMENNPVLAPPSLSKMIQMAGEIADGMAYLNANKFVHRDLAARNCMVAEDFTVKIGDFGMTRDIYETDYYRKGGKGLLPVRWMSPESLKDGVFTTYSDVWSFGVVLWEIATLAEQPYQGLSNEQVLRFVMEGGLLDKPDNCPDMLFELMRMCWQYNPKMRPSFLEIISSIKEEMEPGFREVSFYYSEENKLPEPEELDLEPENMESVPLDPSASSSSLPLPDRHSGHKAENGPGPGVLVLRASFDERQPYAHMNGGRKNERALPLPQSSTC
Activity calls are given as the source filed them.
I'd be grateful if you could share measured Kd for these entries.

Look up Kd for the entries below, preserving their order.
1. O=c1sn(-c2cccc3ccccc23)c(=O)n1Cc1ccccc1
2. CN1CCC(COc2cnc(-c3cccc(Cn4nc(-c5cccc(C#N)c5)ccc4=O)c3)nc2)CC1
3. CC(=O)Nc1cccc(-n2c(=O)n(C3CC3)c(=O)c3c(Nc4ccc(I)cc4F)n(C)c(=O)c(C)c32)c1
4. Cc1ccc(S(=O)(=O)Nc2nc3ccccc3nc2Nc2ccc3nsnc3c2)cc1

["> 30 µM (inactive)", "> 30 µM (inactive)", "> 30 µM (inactive)", "> 30 µM (inactive)"]
